# System: LXRa:RXRa (NR concentration 270 nM, RXRa partner concentration 90 nM)
# measurement notes: PBM binding z-score (relative to random genomic background probes); higher = stronger binding; sequences stand for … in GC…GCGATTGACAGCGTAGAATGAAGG
Quick list: PBM binding z-score per entry.
// return just the number, without any unit appended

TCTAGTTGGTCAAAGGTCACCCACTCGAAATGCG ... 5.45

Entry CCAGACAGGTGAGAACGTAACTCAGCCTCGATTA — recorded PBM binding z-score = -0.0409

Entry TCTTGTAGATCAGTAGGTTAAGAAAGCTGGCCAA — recorded PBM binding z-score = 0.646

Entry TCATATAGGTAATACAGTTGAAAGTCGGCATCTA — recorded PBM binding z-score = 1.24

Entry TCATATAGGTAAAAGGCGAAAGTCGGTGTGGTAA — recorded PBM binding z-score = 0.537

Entry TATACACGGTCAAAGGCCAGAGTACGAATGTCGA — recorded PBM binding z-score = 3.22

Entry GCAGACAGGTGAATCGCAGGTAACTCAGGGTGGC — recorded PBM binding z-score = -0.0182

Entry CGAACTAGGTCAAGCACAGTGAATCTCCGCACGC — recorded PBM binding z-score = 2.35

Entry TCTATTCGTTGAAGGGCAACCGACGAGTCCGTTT — recorded PBM binding z-score = 1.05

Entry ATATGTAGGTTAAGGGTCATTCATGTTGGTTCGC — recorded PBM binding z-score = 4.86
